- STUDY TARGET: T1, KDM4A-DTD N931D (human, UniProt O75164 895-1011, N931D)
- T1 construct: Human KDM4A double tudor domain, residues 895-1011 of UniProt O75164 (isoform 1); source: E. coli BL21 (DE3), purified (Ni-NTA)
- T1 sequence (looked up): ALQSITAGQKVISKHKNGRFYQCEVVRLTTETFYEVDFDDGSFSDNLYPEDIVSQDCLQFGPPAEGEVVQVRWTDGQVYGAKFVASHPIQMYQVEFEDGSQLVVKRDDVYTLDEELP
- PROCEDURE SUMMARY: fluorescence polarisation; fluorescein-labelled histone peptide 3 nM, KDM4 DTD titrated 0.1-100 μM; 30 mM HEPES, 150 mM NaCl pH 7.4, 0.01% Triton X-100
- SETTINGS: both partners purified
pKd: −log10 of the molar value. No end group written: not given here. Me3 = trimethyl-lysine

[
  {
    "BINDER": "ARKSTGGK(Me3)APRKQLATK (also: fluorescein label, end not given here) [H3K14me3 peptide, fluorescein-labelled]",
    "pKd": 4.91
  }
]
